B1: library; a variant is named by its letters at N, in order (parent)
chain: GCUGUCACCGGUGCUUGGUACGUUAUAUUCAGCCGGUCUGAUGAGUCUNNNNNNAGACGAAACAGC

- Variants of: B1
- RUN_DESCRIPTION: normalized RNA/DNA level with ligand (relative to sTRSVctl = 100) (log10 (% of sTRSVctl)); HEK293T overexpressing SLC46A1; ligand concentration (+) RNA-Seq: 6 mM; higher = less ribozyme self-cleavage, higher mRNA level
- REPORTED_CONDITIONS: with (6R,S)-folinic acid; ligand present: yes
For each record, write down the corresponding normalized RNA/DNA level with ligand (log10).
Numbers only.

CHANGE	REPORTED
ACAGAA	2

Please go through the list and note normalized RNA/DNA level with ligand (log10) for each variant.
1. AGCGUA
2. GGCUUC
3. CGGAGA
4. AUAACA
5. CCUAGG

1. 2
2. 2.08
3. 2.03
4. 1.98
5. 2.04
